Listing of entries alongside the reported EC50.
target: Mu-type opioid receptor (Homo sapiens); assay: Agonist activity at human mu opioid receptor expressed in CHO cells assessed as [35S]-GTP[gammaS] binding; assay type: cell-based
Sequence (P35372 whole entry): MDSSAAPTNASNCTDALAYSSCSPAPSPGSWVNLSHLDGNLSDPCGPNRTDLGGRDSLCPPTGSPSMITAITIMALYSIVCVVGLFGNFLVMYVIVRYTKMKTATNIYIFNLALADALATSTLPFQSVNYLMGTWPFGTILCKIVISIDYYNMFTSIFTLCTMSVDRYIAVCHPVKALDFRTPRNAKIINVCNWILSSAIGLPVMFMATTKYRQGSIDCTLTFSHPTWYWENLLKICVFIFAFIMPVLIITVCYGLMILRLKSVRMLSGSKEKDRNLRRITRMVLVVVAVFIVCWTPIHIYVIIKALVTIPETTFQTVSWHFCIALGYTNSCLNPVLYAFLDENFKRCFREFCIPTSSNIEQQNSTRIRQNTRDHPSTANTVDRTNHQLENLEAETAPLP
# unit: nM | format: bare number

IN: So what's the measured EC50 for this one? C=CCN1CC[C@@]23c4c5ccc(O)c4OCO[C@]46CC[C@@]2(O[C@H](C(=O)N4Cc2ccccc2)[C@H]63)[C@H]1C5
OUT: 2.7

IN: So what's the measured EC50 for this one? CN1CC[C@@]23c4c5ccc(O)c4OCO[C@]46CC[C@@]2(O[C@H](C(=O)N4Cc2ccccc2)[C@H]63)[C@H]1C5
OUT: 113

IN: So what's the measured EC50 for this one? CC(C)CN1CC[C@@]23c4c5ccc(O)c4OCO[C@]46CC[C@@]2(O[C@H](C(=O)N4Cc2ccccc2)[C@H]63)[C@H]1C5
OUT: 223

IN: So what's the measured EC50 for this one? O=C1[C@H]2O[C@@]34CC[C@@]5(OCOc6c(O)ccc7c6[C@@]3(CCN(CC3CC3)[C@@H]4C7)[C@H]25)N1Cc1ccccc1
OUT: 2.8

IN: So what's the measured EC50 for this one? O=C1[C@H]2O[C@@]34CC[C@@]5(OCOc6c(O)ccc7c6[C@@]3(CCN(CC3CC3)[C@@H]4C7)[C@H]25)N1c1ccccc1
OUT: 9

IN: So what's the measured EC50 for this one? O=C1[C@H]2O[C@@]34CC[C@@]5(OCOc6c(O)ccc7c6[C@@]3(CCN(CCc3ccccc3)[C@@H]4C7)[C@H]25)N1Cc1ccccc1
OUT: 2.3

IN: So what's the measured EC50 for this one? O=C1[C@H]2O[C@@]34CC[C@@]5(OCOc6c(O)ccc7c6[C@@]3(CCN(CC3CC3)[C@@H]4C7)[C@H]25)N1CCc1ccccc1
OUT: 2.1
